- test_description: gradient 5% acetonitrile 3 min, to 50% in 2 min, to 85% in 15 min, held 3 min, 100 µL/min
- settings: column: Zorbax Extend-C18 2.1 x 50 mm; eluents: water / acetonitrile, 0.1% formic acid

>  <compound>
CSc1ccccc1C(=O)N1CCN(C(=O)C2CC2c2ccc3c(c2)OCO3)CC1 (stereo not given)

>  <RP-LC retention time, s>
754

$$$$
>  <compound>
O=C(NC1CCCCCCC1)c1nnc(-c2ccc(S(=O)(=O)N3CCOCC3)cc2)o1

>  <RP-LC retention time, s>
991

$$$$
>  <compound>
Cc1cccc(CN2N=C(C(=O)N3CCOCC3)S(=O)(=O)c3ccccc32)c1

>  <RP-LC retention time, s>
832

$$$$
>  <compound>
CS(=O)(=O)NCc1ccc2c(c1)CCN2C(=O)c1ccccc1

>  <RP-LC retention time, s>
733

$$$$
>  <compound>
COC1C(=O)N(CC2CC2)C12CCN(Cc1ccc(F)c(F)c1)CC2 (stereo not given)

>  <RP-LC retention time, s>
623

$$$$
>  <compound>
CCCn1cnc2cc(CNC(=O)C3CCCC3)ccc21

>  <RP-LC retention time, s>
590

$$$$
>  <compound>
O=C(OCc1ccncc1)c1cn(-c2cccc(F)c2)c(=O)c2ccccc12

>  <RP-LC retention time, s>
713

$$$$
>  <compound>
CN(C)c1cc(N2CCCC(NC(=O)c3ccccn3)C2)ncn1 (stereo not given)

>  <RP-LC retention time, s>
559

$$$$
>  <compound>
CC(C)CNS(=O)(=O)c1ccc(-c2nnc(C3CC3)o2)o1

>  <RP-LC retention time, s>
809

$$$$
>  <compound>
CNC(=O)CSc1nnc(N2CCN(C(=O)Cc3ccc([N+](=O)[O-])cc3)CC2)s1

>  <RP-LC retention time, s>
618

$$$$
>  <compound>
Cn1ncc2c3ccccc3n(CCCC(=O)N3CCCCC3)c2c1=O

>  <RP-LC retention time, s>
824

$$$$
>  <compound>
Fc1cccc(N2CC3(CCN(Cc4ccncc4F)CC3)C2c2ccccc2)c1 (stereo not given)

>  <RP-LC retention time, s>
650

$$$$
>  <compound>
CC(C)(C)C(=O)OCOP(=O)(COCCn1cnc2c(N)ncnc21)OCOC(=O)C(C)(C)C

>  <RP-LC retention time, s>
725

$$$$
>  <compound>
CC(=O)c1ccc(NC(=O)c2[nH]c3cc(C)sc3c2CN(C)C)cc1

>  <RP-LC retention time, s>
638

$$$$
>  <compound>
CCc1ccccc1NS(=O)(=O)c1c(C)sc(C)c1-c1cc(C(F)(F)F)on1

>  <RP-LC retention time, s>
1240

$$$$
>  <compound>
O=C(NC1(c2nc(-c3cccnc3)no2)CCCCC1)c1ccc[nH]c1=O

>  <RP-LC retention time, s>
667

$$$$
>  <compound>
Cc1cc(N2CCOCC2)n2nc(CN3CCc4ccccc4C3)nc2n1

>  <RP-LC retention time, s>
590

$$$$
>  <compound>
CCOC(=O)c1[nH]c(C)c(CN(Cc2ccco2)C(=O)c2ccc(N(C)C)cc2)c1C

>  <RP-LC retention time, s>
894

$$$$
>  <compound>
COc1cc(-c2noc(C3CC(=O)N(c4ccc(C)cc4C)C3)n2)cc(OC)c1OC (stereo not given)

>  <RP-LC retention time, s>
938

$$$$
>  <compound>
Cc1noc(C)c1Cc1ccc(C(=O)N2CCc3nn(C)c(=O)n3CC2)o1

>  <RP-LC retention time, s>
633

$$$$
